Test: Solubility assessment of the two crystal forms (solubilized free base concentration over time in pH 7.4 buffer, HPLC)
Assay type: physicochemical
Conditions: phosphate buffer, 20 °C, pH 7.4, aqueous buffer, thermodynamic from solid, pH 7.4, 20°C, protected from light, 6h; read-out: Solubilized fraction
MEASURED_PARAMETER: solubility at 6 h (µg/mL)
API: value field is a number in µg/mL; no unit string.

query: Please list solubility at 6 h recorded for the compound CN(C)c1cccc(-c2c3c(=O)n(-c4ccccc4Cl)[nH]c3cc(=O)n2C)c1 [Form A]
result: 400

====

Assay: Solubility assessment of the two crystal forms (solubilized free base concentration over time in pH 7.4 buffer, HPLC)
Assay type: physicochemical
Conditions: phosphate buffer, 20 °C, pH 7.4, aqueous buffer, thermodynamic from solid, pH 7.4, 20°C, protected from light, read-out: Solubilized fraction
MEASURED_PARAMETER: solubility at 1 h (µg/mL)
API: value field is a number in µg/mL; no unit string.

query: Please list solubility at 1 h recorded for the compound CN(C)c1cccc(-c2c3c(=O)n(-c4ccccc4Cl)[nH]c3cc(=O)n2C)c1 [Form A]
result: 350

====

Assay: Solubility assessment of the two crystal forms (solubilized free base concentration over time in pH 7.4 buffer, HPLC)
Type: physicochemical
Conditions: phosphate buffer, 20 °C, pH 7.4, aqueous buffer, thermodynamic from solid, pH 7.4, 20°C, protected from light, 4h; read-out: Solubilized fraction
MEASURED_PARAMETER: solubility at 4 h

query: Please list solubility at 4 h recorded for the compound CN(C)c1cccc(-c2c3c(=O)n(-c4ccccc4Cl)[nH]c3cc(=O)n2C)c1 [Form A]
result: 390 µg/mL

====

Test: Solubility assessment of the two crystal forms (solubilized free base concentration over time in pH 7.4 buffer, HPLC)
Assay type: physicochemical
Settings: phosphate buffer, 20 °C, pH 7.4, aqueous buffer, thermodynamic from solid, pH 7.4; read-out: Solubility
MEASURED_PARAMETER: solubility (µg/mL)
API: value field is a number in µg/mL; no unit string.

query: Please list solubility recorded for the molecule CN(C)c1cccc(-c2c3c(=O)n(-c4ccccc4Cl)[nH]c3cc(=O)n2C)c1 [Form B]
result: 300

====

Assay: Solubility assessment of the two crystal forms (solubilized free base concentration over time in pH 7.4 buffer, HPLC)
Type: physicochemical
Conditions: phosphate buffer, 20 °C, pH 7.4, aqueous buffer, thermodynamic from solid, pH 7.4, 20°C, protected from light, 2h; read-out: Solubilized fraction
MEASURED_PARAMETER: solubility at 2 h
Reply with a number, then the unit it belongs to.

query: Please list solubility at 2 h recorded for the compound CN(C)c1cccc(-c2c3c(=O)n(-c4ccccc4Cl)[nH]c3cc(=O)n2C)c1 [Form A]
result: 370 µg/mL

====

Experiment: Solubility assessment in pH 1 HCl/KCl buffer (saturation, 24 hours at 20°C, HPLC)
Type: physicochemical
Settings: pH 1, simulated gastric fluid, thermodynamic from solid
MEASURED_PARAMETER: solubility at 24 h

query: Please list solubility at 24 h recorded for the compound CN(C)c1cccc(-c2c3c(=O)n(-c4ccccc4Cl)[nH]c3cc(=O)n2C)c1 [Form B]
result: > 30 mg/mL

====

Experiment: Solubility assessment of the two crystal forms (solubilized free base concentration over time in pH 7.4 buffer, HPLC)
Assay type: physicochemical
Details: phosphate buffer, 20 °C, pH 7.4, aqueous buffer, thermodynamic from solid, pH 7.4, 20°C, protected from light, 24 h; read-out: Solubilized fraction
MEASURED_PARAMETER: solubility at 24 h (µg/mL)
API: value field is a number in µg/mL; no unit string.

query: Please list solubility at 24 h recorded for the molecule CN(C)c1cccc(-c2c3c(=O)n(-c4ccccc4Cl)[nH]c3cc(=O)n2C)c1 [Form A]
result: 510

====

Assay: Solubility assessment of the two crystal forms (solubilized free base concentration over time in pH 7.4 buffer, HPLC)
Format: physicochemical
Settings: phosphate buffer, 20 °C, pH 7.4, aqueous buffer, thermodynamic from solid, pH 7.4, 20°C, protected from light, 30min; read-out: Solubilized fraction
MEASURED_PARAMETER: solubility at 30 min (µg/mL)
API: value field is a number in µg/mL; no unit string.

query: Please list solubility at 30 min recorded for the molecule CN(C)c1cccc(-c2c3c(=O)n(-c4ccccc4Cl)[nH]c3cc(=O)n2C)c1 [Form A]
result: 330

Attribution: patent EP3098220A1
